3' UTR reporter interaction score for assorted sequences
System: ZEB2
ASSAY_SUMMARY: 3' UTR reporter interaction score (median-centred robust z-score of log2 firefly/Renilla activity); higher = less repression of the 3' UTR reporter
CONDITION_SET: HEK293T; 48 h
API note: the answer field is a bare number with no unit suffix.

sequence_input=UAGUACCAGUACCUUGUGUUCA measure_name="3' UTR reporter interaction score" data_value=1.08
sequence_input=CACUCAGCCUUGAGGGCACUUUC measure_name="3' UTR reporter interaction score" data_value=0.556
sequence_input=GAAGUGCUUCGAUUUUGGGGUGU measure_name="3' UTR reporter interaction score" data_value=0.378

Any idea what 3' UTR reporter interaction score was measured for UCCCACGUUGUGGCCCAGCAG ?
-0.736

Reported 3' UTR reporter interaction score for UAAAGCUAGAUAACCGAAAGU : what is it?
-0.694

###

System: MYT1L
ASSAY_SUMMARY: 3' UTR reporter interaction score (median-centred robust z-score of log2 firefly/Renilla activity); higher = less repression of the 3' UTR reporter
CONDITION_SET: HEK293T; 48 h
Parameter class (string): assigned from measured 3' UTR reporter interaction score. Ranges: Low (below -0.3), Mid (-0.3 to below 0.8), High (0.8 or more)

Sort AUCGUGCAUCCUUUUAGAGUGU into one of the categories.
Mid

Which 3' UTR reporter interaction score category applies to UGGUUCUAGACUUGCCAACUA here?
Low

Using the reported 3' UTR reporter interaction score, which band applies to UGGAGGAGAAGGAAGGUGAUG ?
High

###

System: TP53
ASSAY_SUMMARY: 3' UTR reporter interaction score (median-centred robust z-score of log2 firefly/Renilla activity); higher = less repression of the 3' UTR reporter
CONDITION_SET: HEK293T; 48 h
// class assignment uses 3' UTR reporter interaction score with these ranges: b0 (below -0.4), b1 (-0.4 to below 0.3), b2 (0.3 or more)

Worked cases, answers included:
sequence_input=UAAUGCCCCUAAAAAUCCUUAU system_under_test=TP53 cat=b1
sequence_input=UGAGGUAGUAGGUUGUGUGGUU system_under_test=TP53 cat=b2
sequence_input=AGUGGUUUUACCCUAUGGUAG system_under_test=TP53 cat=b0
sequence_input=UAAACGUGGAUGUACUUGCUUU system_under_test=TP53 cat=b1
sequence_input=UUUCCUAUGCAUAUACUUCUUU system_under_test=TP53 cat=b0

Given UGAGGUAGGAGGUUGUAUAGU , name the class its 3' UTR reporter interaction score places it in.
b1

Textbook exercise: identify the category of the sequence given here, AUCGGGAAUGUCGUGUCCGCC , according to its measured value.
b2

Which bin should I file AAAGACAUAGGAUAGAGUCACCUC under?
b2

Record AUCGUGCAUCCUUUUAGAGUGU — which class?
b0

Categorize the following entry: CAUAAAGUAGAAAGCACUAC
b1

Assign a bin to ACAGUCUGCUGAGGUUGGAGC
b0

# bin lookup: classify GAGCUUAUUCAUAAAAGUGCAG by its 3' UTR reporter interaction score
b0

In plain terms, what class is UAGUAGACCGUAUAGCGUACG ?
b1

Class (by measured 3' UTR reporter interaction score) for AUCCUUGCUAUCUGGGUGCUA
b2

Returns: class label. Input: CACGCUCAUGCACACACCCAC
b2

Pick a category. Item: AGCAGCAUUGUACAGGGCUAUCA
b0

GET /class?item= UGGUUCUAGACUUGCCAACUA
b0

Would you mind sorting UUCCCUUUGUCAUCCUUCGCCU into the appropriate category?
b1

Which bin, given its 3' UTR reporter interaction score, does UGGCUCAGUUCAGCAGGAACAG occupy?
b2

Please classify: AAGCCUGCCCGGCUCCUCGGG
b0

###

Tested on: RB1
ASSAY_SUMMARY: 3' UTR reporter interaction score (median-centred robust z-score of log2 firefly/Renilla activity); higher = less repression of the 3' UTR reporter
CONDITION_SET: HEK293T; 48 h
Output TRUE for 3' UTR reporter interaction score not less than 0.3; output FALSE otherwise.

Dear colleague, could you confirm whether AGCUACAUUGUCUGCUGGGUUUC has 3' UTR reporter interaction score at or above 0.3?
FALSE

Threshold query (3' UTR reporter interaction score >= 0.3) on UGAUUGUAGCCUUUUGGAGUAGA
FALSE

Tell me whether 3' UTR reporter interaction score is at least 0.3 here: GUCAACACUUGCUGGUUUCCUC
TRUE

Confirm if 3' UTR reporter interaction score reported for the sequence UUAUCAGAAUCUCCAGGGGUAC is 0.3 or above.
FALSE

Hello, I need to know if CAAAGCGCUUCUCUUUAGAGUG has measured 3' UTR reporter interaction score not below 0.3. Thanks!
FALSE

Could you verify whether the entry UUACAGUUGUUCAACCAGUUACU shows 3' UTR reporter interaction score of no less than 0.3?
FALSE

###

System: MYT1L
ASSAY_SUMMARY: 3' UTR reporter interaction score (median-centred robust z-score of log2 firefly/Renilla activity); higher = less repression of the 3' UTR reporter
CONDITION_SET: HEK293T; 48 h
Respond with MET for 3' UTR reporter interaction score values of -0.4 and above, NOT MET for values below.

sequence_input=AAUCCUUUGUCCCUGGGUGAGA system_under_test=MYT1L cat="NOT MET"
sequence_input=CAAAGCGCUCCCCUUUAGAGGU system_under_test=MYT1L cat="NOT MET"
sequence_input=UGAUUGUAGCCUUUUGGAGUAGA system_under_test=MYT1L cat=MET
sequence_input=AACGCACUUCCCUUUAGAGUGU system_under_test=MYT1L cat=MET
sequence_input=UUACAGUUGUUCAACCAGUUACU system_under_test=MYT1L cat=MET

Now, please, on to the next sequence.
Has UCCGAGCCUGGGUCUCCCUCU a recorded 3' UTR reporter interaction score greater than or equal to -0.4?
MET

###

Tested on: MYB
ASSAY_SUMMARY: 3' UTR reporter interaction score (median-centred robust z-score of log2 firefly/Renilla activity); higher = less repression of the 3' UTR reporter
CONDITION_SET: HEK293T; 48 h
Please mark y if the recorded 3' UTR reporter interaction score is equal to or greater than 0.2, and n if it falls below.

Entry CUCUUGAGGGAAGCACUUUCUGUU : is its 3' UTR reporter interaction score no less than 0.2?
y

Would you say CCACACCGUAUCUGACACUUU shows 3' UTR reporter interaction score at minimum 0.2?
n

###

Test system: TP53
ASSAY_SUMMARY: 3' UTR reporter interaction score (median-centred robust z-score of log2 firefly/Renilla activity); higher = less repression of the 3' UTR reporter
CONDITION_SET: HEK293T; 48 h
MEASURE_NAME: 3' UTR reporter interaction score
Form rule: numeric answer, no unit written next to it.

sequence_input=GAAGUGUGCCGUGGUGUGUCU data_value=0.832

# lookup: 3' UTR reporter interaction score of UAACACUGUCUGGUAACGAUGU
-0.247

Fill blank: measured 3' UTR reporter interaction score of the sequence UGCCUGGGUCUCUGGCCUGCGCGU is ____.
0.35

Could you tell me which 3' UTR reporter interaction score is on file for CUCCAGAGGGAUGCACUUUCU ?
0.339

###

Examples of sequences with documented 3' UTR reporter interaction score follow.
Tested on: EZH2
ASSAY_SUMMARY: 3' UTR reporter interaction score (median-centred robust z-score of log2 firefly/Renilla activity); higher = less repression of the 3' UTR reporter
CONDITION_SET: HEK293T; 48 h
Reply with the value as a number alone.

sequence_input=AAACCGUUACCAUUACUGAGUUU data_value=0.71

Reported 3' UTR reporter interaction score, sequence AGAUCGACCGUGUUAUAUUCGC : ____
0.0389

###

// values below are reported 3' UTR reporter interaction score
System: PHOX2B
ASSAY_SUMMARY: 3' UTR reporter interaction score (median-centred robust z-score of log2 firefly/Renilla activity); higher = less repression of the 3' UTR reporter
CONDITION_SET: HEK293T; 48 h
Hey, just send me the number, nothing else.

Examples with answers:
sequence_input=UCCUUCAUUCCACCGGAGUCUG measure_name="3' UTR reporter interaction score" data_value=-0.547
sequence_input=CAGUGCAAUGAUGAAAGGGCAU measure_name="3' UTR reporter interaction score" data_value=-0.853
sequence_input=AUCACACAAAGGCAACUUUUGU measure_name="3' UTR reporter interaction score" data_value=0.549
sequence_input=AAUAUAACACAGAUGGCCUGU measure_name="3' UTR reporter interaction score" data_value=0.795
sequence_input=CUCCUGACUCCAGGUCCUGUGU measure_name="3' UTR reporter interaction score" data_value=-0.0385
sequence_input=ACAAAGUGCUUCCCUUUAGAGUGU measure_name="3' UTR reporter interaction score" data_value=1.18
sequence_input=UAAGGUGCAUCUAGUGCAGAUA measure_name="3' UTR reporter interaction score" data_value=-0.0776

As a next step, examine the sequence that follows.
Entry UUGAAACAAUCUCUACUGAAC has what 3' UTR reporter interaction score?
0.857
